Conditions: 293.15 K; 100 kPa; Liquid; Sing-around technique in a fixed-path interferometer
Outcome Measure: speed of sound (m/s)

| Compound | Unit Descriptor | Recorded Number |
| --- | --- | --- |
| CC(=O)O.O=C1CCCN1 [γ-butyrolactam acetate] | m/s | 1514.5 |
| CC(=O)O.O=C1CCCCCN1 [ε-caprolactam acetate] | m/s | 1523.1 |
| O=C1CCCN1.O=CO [γ-butyrolactam formate] | m/s | 1531.2 |
| CCCCCC(=O)O.O=C1CCCCCN1 [ε-caprolactam hexanoate] | m/s | 1472.7 |
| CCCCCC(=O)O.O=C1CCCN1 [γ-butyrolactam hexanoate] | m/s | 1429.3 |
| O=C1CCCCCN1.O=CO [ε-caprolactam formate] | m/s | 1552 |
